# target_system: Yap3 (UniProt P38749)
# Sequence: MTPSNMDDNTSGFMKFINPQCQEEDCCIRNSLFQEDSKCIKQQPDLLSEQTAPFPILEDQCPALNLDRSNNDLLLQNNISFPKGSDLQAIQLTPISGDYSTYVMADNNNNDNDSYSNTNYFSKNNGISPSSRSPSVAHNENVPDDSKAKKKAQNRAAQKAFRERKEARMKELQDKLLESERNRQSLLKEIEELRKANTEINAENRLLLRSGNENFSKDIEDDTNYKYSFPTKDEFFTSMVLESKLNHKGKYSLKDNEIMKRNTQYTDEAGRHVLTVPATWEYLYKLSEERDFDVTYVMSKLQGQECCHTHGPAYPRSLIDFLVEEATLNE
# test_protocol: PBM E-score (8-mer binding enrichment) (E-score (-0.5 to 0.5)); higher = stronger / more preferred TF binding
# measurement_conditions: protein concentration: 100 nM; construct: GST-full length
The full ranking holds about 33,000 sequences; the median of “E-score (-0.5 to 0.5)” is about -0.0034, and the highest 2% start at about 0.25. This excerpt belongs to a sample that is enriched for the highest values.
readout: PBM E-score
Give the figure by itself; no unit, no explanation.

{"seq": "GCATAACA", "PBM E-score": 0.157}
{"seq": "ATTTGTTC", "PBM E-score": 0.321}
{"seq": "CAATATAA", "PBM E-score": 0.307}
{"seq": "TAATATAA", "PBM E-score": 0.344}
{"seq": "AATTGTTC", "PBM E-score": 0.257}

**Query** Please give the measured PBM E-score for this sequence: `ACATAATA`
**Result** 0.353

**Query** Also `CAATATAG` ?
**Result** 0.218

**Query** Also `CCGATGTC` ?
**Result** 0.0178

**Query** Also `TCATATAA` ?
**Result** 0.203

**Query** Also `AATGTGAC` ?
**Result** 0.145

**Query** Also `GGAAAGAA` ?
**Result** 0.0609

**Query** Also `ATTACGAA` ?
**Result** 0.329

**Query** Also `TGAAAGAA` ?
**Result** 0.297

**Query** Also `ATTGGCTC` ?
**Result** 0.0983

**Query** Also `AGAGAGCC` ?
**Result** -0.201

**Query** Also `CAAACGAA` ?
**Result** 0.0114

**Query** Also `AATGTGAT` ?
**Result** 0.232

====

PBM E-score values for the sequences below.
# target_system: Yap3 (UniProt P38749)
# Sequence: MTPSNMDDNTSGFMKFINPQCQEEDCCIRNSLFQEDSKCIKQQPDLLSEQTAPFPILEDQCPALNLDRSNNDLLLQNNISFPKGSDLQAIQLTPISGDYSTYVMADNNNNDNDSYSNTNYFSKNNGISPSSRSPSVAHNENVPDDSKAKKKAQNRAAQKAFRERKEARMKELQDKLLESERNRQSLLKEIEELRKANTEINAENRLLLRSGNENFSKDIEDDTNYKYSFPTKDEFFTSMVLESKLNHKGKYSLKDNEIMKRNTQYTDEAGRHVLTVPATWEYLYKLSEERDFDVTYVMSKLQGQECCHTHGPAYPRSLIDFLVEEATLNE
# test_protocol: PBM E-score (8-mer binding enrichment) (E-score (-0.5 to 0.5)); higher = stronger / more preferred TF binding
# measurement_conditions: protein concentration: 100 nM; construct: GST-full length
The full ranking holds about 33,000 sequences; the median of “E-score (-0.5 to 0.5)” is about -0.0034, and the highest 2% start at about 0.25. The full list was thinned out, with the highest values kept by preference.
Give the figure by itself; no unit, no explanation.

Solved cases below.
{"seq": "CGCAATAA", "readout": "PBM E-score", "reported_measurement": 0.191}
{"seq": "CATAATAC", "readout": "PBM E-score", "reported_measurement": 0.24}
{"seq": "GGCAATAA", "readout": "PBM E-score", "reported_measurement": 0.114}
{"seq": "GATTCAAA", "readout": "PBM E-score", "reported_measurement": 0.0843}
{"seq": "CACTGGAC", "readout": "PBM E-score", "reported_measurement": -0.0821}
{"seq": "AATAATAG", "readout": "PBM E-score", "reported_measurement": 0.2}
{"seq": "CTTGTTAC", "readout": "PBM E-score", "reported_measurement": 0.0269}
{"seq": "ATGGCACC", "readout": "PBM E-score", "reported_measurement": -0.14}
{"seq": "TAGTACTA", "readout": "PBM E-score", "reported_measurement": 0.0913}
{"seq": "CAACCGCG", "readout": "PBM E-score", "reported_measurement": 0.323}

**Query** Please give the measured PBM E-score for this sequence: `GTTGTTAA`
**Result** 0.298

**Query** Also `AACGGAAA` ?
**Result** 0.171

**Query** Also `GAAAGATC` ?
**Result** -0.0498

**Query** Also `AATAATAA` ?
**Result** 0.308

**Query** Also `TGTAGTAA` ?
**Result** 0.128

**Query** Also `ATATGAGA` ?
**Result** 0.196

**Query** Also `TATAATGA` ?
**Result** 0.136

**Query** Also `AGATAGGC` ?
**Result** -0.0411

**Query** Also `CCCCCTAA` ?
**Result** -0.291

**Query** Also `AATGGAAT` ?
**Result** 0.275

**Query** Also `AAGGAAAA` ?
**Result** 0.156

**Query** Also `AGTCGACC` ?
**Result** -0.0691

**Query** Also `AAGTCTCA` ?
**Result** -0.101

**Query** Also `CTGGTTGA` ?
**Result** -0.256

**Query** Also `TGCAATAA` ?
**Result** 0.272

**Query** Also `CTTGTTAA` ?
**Result** 0.022

**Query** Also `AGTCGACA` ?
**Result** 0.0995

**Query** Also `GACATACA` ?
**Result** 0.256

**Query** Also `ATTCCTTG` ?
**Result** -0.113

**Query** Also `AAAATACT` ?
**Result** 0.0626

====

PBM E-score values for the sequences below.
# target_system: Yap3 (UniProt P38749)
# Sequence: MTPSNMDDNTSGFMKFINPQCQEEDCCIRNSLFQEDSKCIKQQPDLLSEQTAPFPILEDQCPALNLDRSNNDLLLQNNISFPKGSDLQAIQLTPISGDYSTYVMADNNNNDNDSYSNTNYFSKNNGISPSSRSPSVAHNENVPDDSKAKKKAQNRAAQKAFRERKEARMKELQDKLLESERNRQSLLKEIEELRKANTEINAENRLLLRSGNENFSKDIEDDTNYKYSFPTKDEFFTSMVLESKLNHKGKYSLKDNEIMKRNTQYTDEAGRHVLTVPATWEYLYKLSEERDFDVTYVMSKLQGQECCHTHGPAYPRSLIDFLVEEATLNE
# test_protocol: PBM E-score (8-mer binding enrichment) (E-score (-0.5 to 0.5)); higher = stronger / more preferred TF binding
# measurement_conditions: protein concentration: 100 nM; construct: GST-full length
The full ranking holds about 33,000 sequences; the median of “E-score (-0.5 to 0.5)” is about -0.0034, and the highest 2% start at about 0.25. What follows is part of a selection rich in the highest values, with near analogues and random picks from the rest.
Give the figure by itself; no unit, no explanation.

Solved cases below.
{"seq": "ATTTTATA", "PBM E-score": 0.331}
{"seq": "GTTTTATA", "PBM E-score": 0.139}
{"seq": "ATTAATAA", "PBM E-score": 0.405}
{"seq": "AATTTCCG", "PBM E-score": 0.237}
{"seq": "ATAAGGTG", "PBM E-score": -0.00609}
{"seq": "CCTTTATA", "PBM E-score": 0.0052}
{"seq": "CCCCATCC", "PBM E-score": -0.233}
{"seq": "CTTAATAC", "PBM E-score": 0.0534}

**Query** Please give the measured PBM E-score for this sequence: `GTTAATAA`
**Result** 0.223

====

PBM E-score values for the sequences below.
# target_system: Yap3 (UniProt P38749)
# Sequence: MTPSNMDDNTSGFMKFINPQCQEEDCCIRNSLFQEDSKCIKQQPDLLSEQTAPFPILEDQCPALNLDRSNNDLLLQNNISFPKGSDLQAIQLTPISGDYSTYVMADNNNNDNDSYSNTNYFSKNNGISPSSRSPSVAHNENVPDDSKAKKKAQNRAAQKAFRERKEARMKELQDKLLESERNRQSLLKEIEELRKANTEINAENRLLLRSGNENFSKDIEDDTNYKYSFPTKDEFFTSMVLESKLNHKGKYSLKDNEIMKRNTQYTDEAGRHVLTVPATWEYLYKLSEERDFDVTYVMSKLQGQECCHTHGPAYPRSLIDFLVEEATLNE
# test_protocol: PBM E-score (8-mer binding enrichment) (E-score (-0.5 to 0.5)); higher = stronger / more preferred TF binding
# measurement_conditions: protein concentration: 100 nM; construct: GST-full length
In all, about 33,000 sequences were measured (“E-score (-0.5 to 0.5)”: median about -0.0034, highest 2% from about 0.25 on). This is one part of a sample in which the highest values are shown more often than they occur.
Give the figure by itself; no unit, no explanation.

Solved cases below.
{"seq": "ATTACGGG", "PBM E-score": 0.0809}
{"seq": "ATTAACAA", "PBM E-score": 0.282}
{"seq": "GGTGCGGA", "PBM E-score": -0.0917}
{"seq": "ATACCTAT", "PBM E-score": 0.124}
{"seq": "ATACCTAC", "PBM E-score": -0.0217}

**Query** Please give the measured PBM E-score for this sequence: `GTTATAAC`
**Result** 0.162

**Query** Also `CCTGAACG` ?
**Result** -0.154

**Query** Also `CGCATATA` ?
**Result** 0.00761

**Query** Also `GTTATATA` ?
**Result** 0.224

**Query** Also `CGTGAACC` ?
**Result** -0.157

**Query** Also `GGTCGCCA` ?
**Result** -0.186

**Query** Also `ATTACGAC` ?
**Result** 0.269

**Query** Also `AGATCACG` ?
**Result** 0.128

**Query** Also `AGATCTAC` ?
**Result** 0.0426

**Query** Also `TTTATAAA` ?
**Result** 0.277

**Query** Also `ATCTAAGG` ?
**Result** 0.0735

**Query** Also `ACGGTAGA` ?
**Result** -0.0586

**Query** Also `CTTATTGC` ?
**Result** 0.0255

**Query** Also `GTTAACAA` ?
**Result** 0.205

**Query** Also `ATCAATAC` ?
**Result** 0.11

**Query** Also `CGAATCGA` ?
**Result** 0.301

**Query** Also `AGAATCGA` ?
**Result** 0.0567

**Query** Also `GGCTTGAC` ?
**Result** 0.0242

**Query** Also `ACCCGCAA` ?
**Result** -0.239

**Query** Also `ACTACTAA` ?
**Result** 0.0558

**Query** Also `CCCACGTC` ?
**Result** -0.122
